# TARGET_DESC: T1, GRIP1_7, Q9Y3R0
# T1 sequence (Q9Y3R0 999-1096, limits assumed, looked up): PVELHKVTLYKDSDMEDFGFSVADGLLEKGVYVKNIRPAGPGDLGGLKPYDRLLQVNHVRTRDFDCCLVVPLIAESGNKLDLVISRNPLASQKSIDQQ
# PROTOCOL_NOTES: holdup assay
# Parameters: key: below the threshold = too weak to quantify, mostly under pKd 3.1 to 4
# RUN_PARAMETERS: plain residues with an end cap or a label only (N-terminal biotin on a linker: ahx)
READOUT_NAME: pKd

These recorded examples may help you get a feel for the data.
BINDER | pKd
TQKFRASTAL [FRMPD1, Q5SYB0] | below the threshold
QDEKVKESYV [ABCA1, O95477] | 3.49
APSRKLNTEI [TIAM1, Q13009] | below the threshold
QPRTWLQSPV [RTKN, Q9BST9] | below the threshold

Okay, next one:
-- ask Any idea what pKd was measured for QNTDDVQTSF [ACE2, Q9BYF1] ?
-- reply below the threshold
